Source of measurements: the RNAGym collection of RNA variant scans (doi:10.7554/elife.80360)

B1: HDV Ribozyme (parent)
chain: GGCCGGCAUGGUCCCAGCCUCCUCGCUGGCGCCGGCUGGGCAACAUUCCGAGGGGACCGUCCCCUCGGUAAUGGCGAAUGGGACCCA

Variants of: B1
PROTOCOL_DESCRIPTION: self-cleavage, relative activity (ratio to wild type); higher = more cleavage; co-transcriptional
MEASURE: self-cleavage

Recorded self-cleavage, per entry:
[
  {
    "MUTATION_LIST": "C14G A70G",
    "self-cleavage": 0.831
  },
  {
    "MUTATION_LIST": "G6U C86G",
    "self-cleavage": 0.467
  },
  {
    "MUTATION_LIST": "A16G U37A",
    "self-cleavage": 0.115
  },
  {
    "MUTATION_LIST": "G11C U20G",
    "self-cleavage": 0
  },
  {
    "MUTATION_LIST": "G5C C22G",
    "self-cleavage": 0
  },
  {
    "MUTATION_LIST": "C57U G80A",
    "self-cleavage": 0.148
  },
  {
    "MUTATION_LIST": "C3G C14G",
    "self-cleavage": 0.268
  },
  {
    "MUTATION_LIST": "G54U A56C",
    "self-cleavage": 0.861
  }
]

Data request: I'd like to know its self-cleavage. The variant in question is C24U A87U
Data returned: 0.696

Data request: Another variant: G5C A42C
Data returned: 0.115

Data request: Another variant: U12C C75G
Data returned: 0.166

Data request: Another variant: C64A U72G
Data returned: 0.856

Data request: Another variant: C22A G28U
Data returned: 0.106

Data request: Another variant: C36A G81C
Data returned: 0.102
